Examples of molecules with documented log10(Kb) follow.
Assayed System: H2 histamine receptors (Cavia porcellus)
Construct: from tissue; host or cells: guinea pig right atrium (spontaneously beating)
Sequence (P47747 whole entry): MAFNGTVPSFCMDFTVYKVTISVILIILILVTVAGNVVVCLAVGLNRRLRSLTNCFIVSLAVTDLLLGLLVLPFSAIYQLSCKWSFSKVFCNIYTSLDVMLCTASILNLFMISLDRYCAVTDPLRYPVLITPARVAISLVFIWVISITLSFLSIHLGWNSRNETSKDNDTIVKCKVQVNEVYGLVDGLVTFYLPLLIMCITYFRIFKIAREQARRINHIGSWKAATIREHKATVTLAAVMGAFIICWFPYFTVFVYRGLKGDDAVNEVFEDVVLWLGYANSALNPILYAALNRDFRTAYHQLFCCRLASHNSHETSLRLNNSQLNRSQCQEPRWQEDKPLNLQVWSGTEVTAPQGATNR
Protocol Details: Guinea pig heart (spontaneously beating right atrium) test: antagonism of histamine-induced positive chronotropic response
Format: cell-based
Applied Conditions: 30 min preincubation, histamine dose-response, 32 °C, pH 7.4; three experiments; read-out: pA2 Value (apparent dissociation constant of the H2 antagonist) (converted)
Description: The guinea pig heart atrium test is carried out as follows: A guinea pig right atrium is suspended at 1 g. tension (isometric) in a thermostatically controlled (32° C.) tissue bath (10 ml.) containing oxygenated (95% O2; 5% CO2) Krebs-Haenseleit buffer (pH 7.4). The tissue is allowed to stabilize over 1 hour. Individual contractions are recorded with a force-displacement transducer through a strain gauge coupler. […]
Counter-ions that a name gives are not always drawn.
Parameter: log10(Kb) (log10 of the value in nM)

>>> observed("N#Cc1cccc(-c2csc(NC(=N)N)n2)c1 [Example 3, Hydrobromide, Hydrate]")
2.40
>>> observed("N=C(N)Nc1nc(-c2cccc(C(N)=NOC(N)=O)c2)cs1 [Example 6, Hydrochloride, Hemihydrate]")
1.80
>>> observed("N=C(N)Nc1nc(-c2cccc(C(N)=NO)c2)cs1 [Example 5, Dihydrochloride]")
1.70
>>> observed("CC(=O)ON=C(N)c1cccc(-c2csc(NC(=N)N)n2)c1 [Example 7, Dihydrochloride]")
1.60
>>> observed("N=C(N)Nc1nc(-c2cccc(C(=N)N)c2)cs1")
0.70

Values compiled from patent US4452985A.
